The measured values listed here are drawn from ChEMBL document CHEMBL5724801.

system: HEK-293T; experiment: Multiplex assay against HEK293T; type: toxicity, cell-based; conditions: human, 48 h, 1 µM, compound concentration 1 uM
A collection of molecules and their measured Population Membrane Permeable-Phenotype (%)
Field: numeric (%). Do not append units.

| molecule | quantitative readout |
| --- | --- |
| COCCn1c(C)c(C)s/c1=N\C(=O)C1C(C)(C)C1(C)C | 0 |

Incoming: Form: Entry = COC[C@@H](c1ccc(C(F)(F)F)cc1)N1CCN(C2(C)CCN(C(=O)c3c(C)ncnc3C)CC2)C[C@@H]1C.O=C(O)/C=C\C(=O)O [VICRIVIROC MALEATE] | System = HEK-293T | Population Membrane Permeable-Phenotype (%) = ____
Outgoing: 1

Incoming: Form: Entry = "CC(C)c1noc(N2CCC(COc3ccc(-c4ccc(S(C)(=O)=O)cc4)nc3)CC2)n1" | System = HEK-293T | Population Membrane Permeable-Phenotype (%) = ____
Outgoing: 1

Incoming: Form: Entry = "C[C@@H]1CC(=O)Nc2cccc(-c3ccc4c(c3)c(-c3cnn(C)c3)nn4C)c2N1" | System = HEK-293T | Population Membrane Permeable-Phenotype (%) = ____
Outgoing: 0

Incoming: Form: Entry = "CCc1nn2c(C)cc(C)nc2c1Cc1ccc(-c2nnc(C3CCNCC3)o2)cc1" | System = HEK-293T | Population Membrane Permeable-Phenotype (%) = ____
Outgoing: 0

Incoming: Form: Entry = "CC(F)(F)CN1CCOc2c(nn(-c3ccccc3Cl)c2-c2ccc(Cl)cc2)C1=O" | System = HEK-293T | Population Membrane Permeable-Phenotype (%) = ____
Outgoing: 1

Incoming: Form: Entry = Cc1ccc(C(C)(O)c2nc3ccccc3s2)c(C)c1 (centres undefined) | System = HEK-293T | Population Membrane Permeable-Phenotype (%) = ____
Outgoing: 1

Incoming: Form: Entry = "CCCCCCNC(=O)Nc1ccc(S(=O)(=O)Nc2ccc(CCNC[C@H](O)COc3ccc(O)cc3)cc2)cc1" | System = HEK-293T | Population Membrane Permeable-Phenotype (%) = ____
Outgoing: 2

Incoming: Form: Entry = CSc1ccccc1N1CCN(CCCCCC(=O)NC2CCCc3ccccc32)CC1.Cl (centres undefined) | System = HEK-293T | Population Membrane Permeable-Phenotype (%) = ____
Outgoing: 0

###

tested on: Fibroblast; test: Multiplex assay against human fibroblast; type: toxicity, cell-based; settings: 24 h, 1 µM, compound concentration 1 uM
A collection of compounds and their measured Population Hoechst High Intensity Objects (%)
Field: numeric (%). Do not append units.

| compound | quantitative readout |
| --- | --- |
| C=C(C)[C@H]1CN[C@H](C(=O)O)[C@H]1CC(=O)O [KAINIC ACID] | 0 |
| COC[C@@H](c1ccc(C(F)(F)F)cc1)N1CCN(C2(C)CCN(C(=O)c3c(C)ncnc3C)CC2)C[C@@H]1C.O=C(O)/C=C\C(=O)O [VICRIVIROC MALEATE] | 3 |

Incoming: Look up Population Hoechst High Intensity Objects (%) for this compound: c1ccc2nc(N3CCNCC3)ccc2c1 [QUIPAZINE]
Outgoing: 0

Incoming: Look up Population Hoechst High Intensity Objects (%) for this compound: "O=C1NCc2ccc3c(-c4cccc(Cl)c4)c[nH]c3c21"
Outgoing: 0

Incoming: Look up Population Hoechst High Intensity Objects (%) for this compound: "Cl.Cl.N#Cc1ccc(O[C@@H]2c3ccccc3C[C@H]2N2CCC[C@@H](N)C2)c(Cl)c1"
Outgoing: 0

Incoming: Look up Population Hoechst High Intensity Objects (%) for this compound: "O=C(Nc1ccccc1Cl)c1cnc2ccc(C3CCNCC3)cn12.O=C(O)C(=O)O"
Outgoing: 0

Incoming: Look up Population Hoechst High Intensity Objects (%) for this compound: "CSCC[C@H](NC=O)C(=O)N[C@@H](CC(C)C)C(=O)N[C@@H](Cc1ccccc1)C(=O)O"
Outgoing: 7

Incoming: Look up Population Hoechst High Intensity Objects (%) for this compound: "COc1cc2ncnc(Nc3ccc(Oc4ccccc4)cc3C)c2cc1OC.Cl"
Outgoing: 0

###

test system: Fibroblast; assay: Multiplex assay against human fibroblast; type: toxicity, cell-based; conditions: 24 h, 10 µM, compound concentration 10 uM
A collection of compounds and their measured Population Hoechst High Intensity Objects (%)
Answer shape: numeric part, then the unit.

| compound | target under test | result |
| --- | --- | --- |
| Cc1noc(-c2ccc(-c3ccc(CC(=O)O)cc3)cc2)c1NC(=O)O[C@H](C)c1ccccc1Cl | Fibroblast | 1% |

Incoming: Look up Population Hoechst High Intensity Objects (%) for this compound: CNC[C@H](O)c1ccc(O)c(O)c1 [EPINEPHRINE]
Outgoing: 3%

Incoming: Look up Population Hoechst High Intensity Objects (%) for this compound: O=C(NCCNCC(O)COc1ccc(O)cc1)N1CCOCC1.O=C(NCCNCC(O)COc1ccc(O)cc1)N1CCOCC1.O=C(O)/C=C/C(=O)O (centres undefined) [XAMOTEROL FUMARATE]
Outgoing: 1%

Incoming: Look up Population Hoechst High Intensity Objects (%) for this compound: "CC(C)c1ccc(/C=N/NC(=O)c2ccc(O)cc2)cc1"
Outgoing: 0%

Incoming: Look up Population Hoechst High Intensity Objects (%) for this compound: "Cl.Cl.N#Cc1ccc(O[C@@H]2c3ccccc3C[C@H]2N2CCC[C@@H](N)C2)c(Cl)c1"
Outgoing: 0%

Incoming: Look up Population Hoechst High Intensity Objects (%) for this compound: "O=C1N=C(NCc2cccs2)S/C1=C\c1ccc2ncccc2c1"
Outgoing: 0%

Incoming: Look up Population Hoechst High Intensity Objects (%) for this compound: "CCN1CCN(Cc2ccc(Nc3ncc(F)c(-c4cc(F)c5nc(C)n(C(C)C)c5c4)n3)nc2)CC1.CS(=O)(=O)O"
Outgoing: 0%

Incoming: Look up Population Hoechst High Intensity Objects (%) for this compound: "O=C(Nc1ccccc1Cl)c1cnc2ccc(C3CCNCC3)cn12.O=C(O)C(=O)O"
Outgoing: 0%

Incoming: Look up Population Hoechst High Intensity Objects (%) for this compound: "O=C(CCCc1ccccc1)Nc1nc2ccccc2c(=O)s1"
Outgoing: 5%

###

test system: HEK-293T; experiment: Multiplex assay against HEK293T; format: toxicity, cell-based; conditions: human, 12 h, 1 µM, compound concentration 1 uM
measurement type: Population Fragmented Nuclei (%)
Field: numeric (%). Do not append units.

| molecule | target under test | Population Fragmented Nuclei (%) |
| --- | --- | --- |
| O=S(=O)(c1ccccc1)c1cnc2c(N3CCNCC3)cccc2c1 [INTEPIRDINE] | HEK-293T | 7 |

Incoming: Look up Population Fragmented Nuclei (%) for this molecule: CSc1ccccc1N1CCN(CCCCCC(=O)NC2CCCc3ccccc32)CC1.Cl (stereo not given)
Outgoing: 6

Incoming: Look up Population Fragmented Nuclei (%) for this molecule: "CN1CCC(C(=O)c2cccc(NC(=O)c3c(F)cc(F)cc3F)n2)CC1"
Outgoing: 5

Incoming: Look up Population Fragmented Nuclei (%) for this molecule: CNC[C@H](O)c1ccc(O)c(O)c1 [EPINEPHRINE]
Outgoing: 6

Incoming: Look up Population Fragmented Nuclei (%) for this molecule: COC[C@@H](c1ccc(C(F)(F)F)cc1)N1CCN(C2(C)CCN(C(=O)c3c(C)ncnc3C)CC2)C[C@@H]1C.O=C(O)/C=C\C(=O)O [VICRIVIROC MALEATE]
Outgoing: 7

###

system: U2OS; assay: Multiplex assay against U2OS; assay type: toxicity, cell-based; settings: human, 24 h, 10 µM, compound concentration 10 uM
A collection of molecules and their measured Population Hoechst High Intensity Objects (%)

Incoming: Look up Population Hoechst High Intensity Objects (%) for this molecule: "O=C1N=C(NCc2cccs2)S/C1=C\c1ccc2ncccc2c1"
Outgoing: 0%

Incoming: Look up Population Hoechst High Intensity Objects (%) for this molecule: "CCc1nn2c(C)cc(C)nc2c1Cc1ccc(-c2nnc(C3CCNCC3)o2)cc1"
Outgoing: 3%

Incoming: Look up Population Hoechst High Intensity Objects (%) for this molecule: "CCN1CCN(Cc2ccc(Nc3ncc(F)c(-c4cc(F)c5nc(C)n(C(C)C)c5c4)n3)nc2)CC1.CS(=O)(=O)O"
Outgoing: 0%

Incoming: Look up Population Hoechst High Intensity Objects (%) for this molecule: "Cc1cc(O)c(-c2ccc([C@@H](C)CN(C)C)cc2)c2c1[nH]c(=O)c1sccc12"
Outgoing: 9% [middle of 4 runs]

Incoming: Look up Population Hoechst High Intensity Objects (%) for this molecule: "S=c1[nH]nc(-c2cccs2)n1-c1ccccc1"
Outgoing: 0%

Incoming: Look up Population Hoechst High Intensity Objects (%) for this molecule: O=C(NCCNCC(O)COc1ccc(O)cc1)N1CCOCC1.O=C(NCCNCC(O)COc1ccc(O)cc1)N1CCOCC1.O=C(O)/C=C/C(=O)O (stereo not given) [XAMOTEROL FUMARATE]
Outgoing: 1%

Incoming: Look up Population Hoechst High Intensity Objects (%) for this molecule: "c1ccc2nc(N3CCNCC3)ccc2c1"
Outgoing: 0%

Incoming: Look up Population Hoechst High Intensity Objects (%) for this molecule: "C=C(C)[C@H]1CN[C@H](C(=O)O)[C@H]1CC(=O)O"
Outgoing: 0%

Incoming: Look up Population Hoechst High Intensity Objects (%) for this molecule: "CC[C@H](Nc1ncnc2[nH]cnc12)c1nc2cccc(F)c2c(=O)n1-c1ccccc1"
Outgoing: 0%

Incoming: Look up Population Hoechst High Intensity Objects (%) for this molecule: COC[C@@H](c1ccc(C(F)(F)F)cc1)N1CCN(C2(C)CCN(C(=O)c3c(C)ncnc3C)CC2)C[C@@H]1C.O=C(O)/C=C\C(=O)O [VICRIVIROC MALEATE]
Outgoing: 1%
